MEASURED ENDPOINT: melting point (°C)
Numbers only, in °C.

Would you mind listing melting point for each of the following compounds?
1. CCCCn1c(SCC(=O)NN=C(C)c2ccc(O)cc2O)nc2ccccc2c1=O
2. C=CCn1c(SCC(=O)NN=Cc2ccc(O)c(O)c2O)nc2ccccc2c1=O
3. O=C(CSc1nc2ccccc2c(=O)n1Cc1ccccc1)NN=Cc1ccc(O)c(O)c1O
4. CCCCn1c(SCC(=O)NN=Cc2ccc(O)c(O)c2O)nc2ccccc2c1=O
5. CCn1c(SCC(=O)NN=Cc2ccc(O)c(O)c2O)nc2ccccc2c1=O
6. C=CCn1c(SCC(=O)NN=C(C)c2ccc(O)cc2O)nc2ccccc2c1=O

// result
[225, 213, 228, 239, 208, 230]

###

# PROCEDURE SUMMARY: Ferric reducing antioxidant potential (FRAP) assay
# Set-up: concentration or dose not given beside the values
# CONDITION PARAMETERS: relative to ascorbic acid
Give FRAP, % of Activity of Ascorbic Acid for every item shown.
Give bare numbers, in %.

Go through the list and state FRAP, % of Activity of Ascorbic Acid for each entry.
1. CCn1c(SCC(=O)NN=C(C)c2ccc(O)cc2O)nc2ccccc2c1=O
2. C=CCn1c(SCC(=O)NN=Cc2ccc(O)c(O)c2O)nc2ccccc2c1=O
3. CC(=NNC(=O)CSc1nc2ccccc2c(=O)n1Cc1ccccc1)c1ccc(O)cc1O
4. O=C(CSc1nc2ccccc2c(=O)n1Cc1ccccc1)NN=Cc1ccc(O)c(O)c1O

// result
1: 25.85; 2: 86.18; 3: 18.51; 4: 67.05

###

I'd appreciate it if you could supply % of ABTS˙^+ Scavenging values for the items below.
# PROCEDURE SUMMARY: ABTS˙+ radical scavenging assay
# CONDITION PARAMETERS: 9.99 µg/mL
Numbers only, in %.

For every listed record, write down its % of ABTS˙^+ Scavenging.
1. CCCCn1c(SCC(=O)NN=C(C)c2ccc(O)cc2O)nc2ccccc2c1=O [Compound 6d]
2. CC(=NNC(=O)CSc1nc2ccccc2c(=O)n1Cc1ccccc1)c1ccc(O)cc1O [Compound 6b]
3. CCn1c(SCC(=O)NN=C(C)c2ccc(O)cc2O)nc2ccccc2c1=O [Compound 6c]
4. C=CCn1c(SCC(=O)NN=C(C)c2ccc(O)cc2O)nc2ccccc2c1=O [Compound 6a]

// result
75.41
90.98
91.60
60.55

###

# PROCEDURE SUMMARY: DPPH˙ radical scavenging assay
# CONDITION PARAMETERS: 2.5 µg/mL
Assignment: determine reported % of DPPH˙ Scavenging for the given molecules.
Answers are plain numbers, in %.

molecule=O=C(CSc1nc2ccccc2c(=O)n1Cc1ccccc1)NN=Cc1ccc(O)c(O)c1O measured_endpoint="% of DPPH˙ Scavenging" value_measured=45.21

The following molecules each have a reported value; give each one's % of DPPH˙ Scavenging.
1. C=CCn1c(SCC(=O)NN=Cc2ccc(O)c(O)c2O)nc2ccccc2c1=O
2. CCCCn1c(SCC(=O)NN=Cc2ccc(O)c(O)c2O)nc2ccccc2c1=O
3. Cc1c(C)c2c(c(C)c1O)CCC(C)(C(=O)O)O2 (stereo not shown) [Trolox, reference compound]
4. O=C1O[C@H]([C@@H](O)CO)C(O)=C1O [Ascorbic acid, reference compound]

// result
[49.94, 53.03, 28.53, 47.45]

// query Specify reported % of DPPH˙ Scavenging for the molecule shown: `CCn1c(SCC(=O)NN=Cc2ccc(O)c(O)c2O)nc2ccccc2c1=O`
// result 55.40
